Origin of measurements: ChEMBL document CHEMBL1201862

System: DLD-1
Assay text: NCI tumour cell line growth inhibition, 48 h
Active and inactive are the calls of the source. Rule as the data show it: active = GI50 up to about 1.1 µM and inactive = higher.
Possible outcomes: active, inactive

Compound	Class
CCCSCC(P(=O)(O)O)P(=O)(O)O.NC1CCCCC1	inactive
CCOC(=O)c1cn(CC)c2cc3c(cc2c1=O)SCS3	inactive
Cc1cc(N(CCC#N)CCC#N)ccc1/C=C1N=C(/C=C/c2ccccc2)N(c2ccc(S(N)(=O)=O)cc2)C\1=O	inactive
C=CCCC(=O)CC(=O)OCc1ccccc1	inactive
COc1ccc2c(NCCCCCCNc3c4ccccc4nc4cc(OC)ccc34)c3ccccc3nc2c1	active
CC(=O)O[C@]1(C(C)=O)CC[C@H]2[C@@H]3C[C@H](C)C4=CC(=O)C=C[C@]4(C)[C@@]3(F)[C@@H](O)C[C@@]21C [FLUOROMETHOLONE ACETATE]	inactive
O=C(CC(=O)C1=CNc2ccccc2S1)C(=O)Nc1ccc(Cl)cc1	inactive
Cc1ccc2[nH]c3c(C)c4cc[n+](C)cc4c(C)c3c2c1	inactive
CC1=C(C(=O)Nc2cccc(Cl)c2)C(c2ccccc2F)C(C(=O)Nc2cccc(Cl)c2)=C(C)N1	inactive
CCCCCCCCCCCCCCCCc1c(O)nc(NC#N)nc1C(=O)OC	inactive
COc1ccc2c(c1)[n+]([O-])c(/C(C)=N/NC(N)=S)c(C)[n+]2[O-]	inactive
O=C(/C=C/c1c(O)ccc2ccccc12)c1cccc2ccccc12	inactive
N#CC1=C(N)n2c(s/c(=C\c3ccc(Cl)cc3)c2=O)=C(c2nc3ccccc3[nH]2)C1c1ccc(Cl)cc1 (centres undefined)	inactive
Cc1ccc(/N=N/c2c(C)nn(-c3ccccc3)c2C)c(Br)c1	inactive

----------
Test system: LXFL 529
Assay text: NCI tumour cell line growth inhibition, 48 h
Active and inactive are the calls of the source. No stated cut-off is given here; in the data, active = GI50 up to about 1.1 µM and inactive = higher.
Possible outcomes: active, inactive

Compound	Class
CCCCCCCC/C=C/CCCCCCCC(=O)N(O)C1CC(n2cc(C)c(=O)[nH]c2=O)OC1CO (configuration not stated)	inactive
O=C1C(Cl)=C(N2CCN(C3=C(Cl)C(=O)c4ccccc4C3=O)CC2)C(=O)c2ccccc21	active
Oc1cc(O)c2c(-c3c(O)c(-c4ccc(O)c(O)c4)[o+]c4cc(O)cc(O)c34)c(O)c(-c3ccc(O)c(O)c3)[o+]c2c1	inactive
COC(=O)C(=O)C(C(C)=O)C(=O)NCc1ccccc1 (configuration not stated)	inactive
O=C(N/N=C1\C(=O)N(c2nccs2)C(=O)C(=O)C1c1nc2ccccc2s1)c1ccccc1O (configuration not stated)	inactive
CC(=O)OC12/C(=N/O)CCCCCC1c1ccccc12 (configuration not stated)	inactive
O=C(O)CSc1ccc2nc3ccccc3c(O)c2c1	inactive

----------
System: HCC 2998
Assay text: NCI tumour cell line growth inhibition, 48 h
Activity calls are given as the source filed them. Rule as the data show it: active = GI50 up to about 1.1 µM and inactive = higher.

Compound	Assay target	GI50
COC1/C=C\C=C(/C)C(=O)NC2=CC(=O)C=C(C2=O)C(OC)C(C)CC(OC)C(OC)C(C)/C=C(/C)C1OC(N)=O (centres undefined)	HCC 2998	2.66 µM (inactive)
O=C(CN1CCCC1)Nc1ccc2c(c1)C1Oc3ccccc3CC1CO2 (centres undefined)	HCC 2998	16.8 µM (inactive)
CC(=O)OC12c3ccccc3-c3ccccc3C1C1C(=O)OC(=O)C12 (centres undefined)	HCC 2998	> 10 µM (inactive)
COc1ccccc1/N=N/c1c(-c2ccccc2)nn(C(=O)CC(=O)Nc2ccccc2Cl)c1-c1ccccc1	HCC 2998	> 100 µM (inactive)
CCCCCCCC/C=C/CCCCCCCC(=O)N(O)C1CC(n2cc(C)c(=O)[nH]c2=O)OC1CO (centres undefined)	HCC 2998	10.6 µM (inactive)
CO[C@@]12C[C@@H](C)C3=CCC(C)=C3CC1=C(C)C(=O)O2	HCC 2998	> 100 µM (inactive)
COc1ccc(-n2c(=O)n(C)c(=O)n2-c2c(C)c(C)c(C)c(C)c2C)cc1	HCC 2998	> 100 µM (inactive)
O=C(CC(=O)C1=CNc2ccccc2S1)C(=O)Nc1ccc(Cl)cc1	HCC 2998	> 50 µM (inactive)
O=C(/C=C/c1c(O)ccc2ccccc12)c1cccc2ccccc12	HCC 2998	> 100 µM (inactive)
